This section presents compounds with their documented IC50 values.
EXPERIMENTAL_TARGET: recombinant Human Phosphodiesterase B2 (PDE4B2) (Homo sapiens)
Sequence (Q07343 1-564 isoform Q07343-2): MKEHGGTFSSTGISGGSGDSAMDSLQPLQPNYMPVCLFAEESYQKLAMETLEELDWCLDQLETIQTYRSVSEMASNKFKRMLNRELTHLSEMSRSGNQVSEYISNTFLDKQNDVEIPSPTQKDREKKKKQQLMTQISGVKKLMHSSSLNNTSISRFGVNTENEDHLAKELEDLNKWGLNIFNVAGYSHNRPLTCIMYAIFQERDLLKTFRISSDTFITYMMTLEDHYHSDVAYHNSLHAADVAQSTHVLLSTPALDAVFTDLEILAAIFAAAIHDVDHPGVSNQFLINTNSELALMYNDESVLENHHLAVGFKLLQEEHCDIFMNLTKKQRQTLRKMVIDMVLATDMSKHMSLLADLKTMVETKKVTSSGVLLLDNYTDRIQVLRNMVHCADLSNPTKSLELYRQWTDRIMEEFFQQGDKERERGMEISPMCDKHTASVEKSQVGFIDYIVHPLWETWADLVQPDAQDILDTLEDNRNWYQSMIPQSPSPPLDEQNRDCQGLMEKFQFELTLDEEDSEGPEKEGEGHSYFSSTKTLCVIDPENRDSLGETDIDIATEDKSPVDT
TEST_NAME: Human Phosphodiesterase B2 Radiometric Assay (yttrium silicate SPA beads, [3H]cyclic AMP)
Type: biochemical
STUDY_CONDITIONS: recombinant human PDE4B2, radiometric SPA assay, 8 nM [3H]cyclic AMP; read-out: PDE4B2 pIC50 (converted)
Supply the numeric figure in nM, leaving out any unit text.

Known results for compounds:
CC(=O)N[C@H]1CC[C@@H](n2c(=O)c3cc(F)cnc3n(-c3cccc(-c4ccc(CN(C)C)cc4)c3)c2=O)CC1 | 2
CC(=O)N1CCN(Cc2ccc(-c3cccc(-n4c(=O)n([C@H]5CC[C@@H](NC(=O)c6cc(C)n(C)n6)CC5)c(=O)c5cc(F)cnc54)c3)cc2)CC1 | 0.0158

IN: Need IC50, item O=C(N[C@H]1CC[C@@H](n2c(=O)c3cc(F)cnc3n(-c3cccc(Sc4ccccc4)c3)c2=O)CC1)c1cn2cc(F)ccc2n1
OUT: 0.0631

IN: IC50 lookup needed for CN(CCO)Cc1cc(O)ccc1-c1cccc(-n2c(=O)n([C@H]3CC[C@@H](NCc4cn5cc(F)ccc5n4)CC3)c(=O)c3cc(F)cnc32)c1 , thanks.
OUT: 0.126

IN: Would you mind telling me what IC50 value was observed for O=C(N[C@H]1CC[C@@H](n2c(=O)c3cc(F)cnc3n(-c3cccc(-c4ccc(CN5CCC(N6CCCCC6)CC5)cc4)c3)c2=O)CC1)c1cnc2ccccc2n1 ?
OUT: 0.01

IN: What does the data say about its IC50? Entry: COCCNCc1ccc(-c2cccc(-n3c(=O)n([C@H]4CC[C@@H](NC(=O)c5cc(C)n(C)n5)CC4)c(=O)c4cc(F)cnc43)c2)cc1
OUT: 0.126

IN: // query IC50 value for entry O=C(O)c1ccc(-c2cccc(-n3c(=O)n([C@H]4CC[C@@H](NC(=O)c5cn6cc(F)ccc6n5)CC4)c(=O)c4cc(F)cnc43)c2)cc1
OUT: 0.251

IN: If you can, please state the reported IC50 value of CN1CCN(Cc2ccc(-c3cccc(-n4c(=O)n([C@H]5CC[C@@H](NC(=O)c6cn7cc(F)ccc7n6)CC5)c(=O)c5cc(F)cnc54)c3)cc2)CC1 .
OUT: 0.02

IN: For the compound shown here, CN(C)Cc1ccc(-c2cccc(-n3c(=O)n([C@H]4CC[C@@H](NC(=O)c5cn6cc(F)ccc6n5)CC4)c(=O)c4cc(F)cnc43)c2)cc1 , give the reported IC50.
OUT: 0.1
